Test Name: Selectivity for human P2Y12 receptor over P2Y13
Measured Property: fold change (FC)

Reference set, count: 3
>>> df
                                   molecule  measured_property  recorded_result
0  CCCCCOC(=O)N1CCN(C(=O)[C@H](CCC(=O)O)NC(=O)c2nc(-c3ccccc3)cc(N3CCN(C)CC3)n2)CC1   fold change (FC)            > 340
1  CCCCCOC(=O)N1CCN(C(=O)[C@H](CCC(=O)O)NC(=O)c2cc(N3CCN(CC(=O)N(C)C)CC3)nc(-c3ccccc3)n2)CC1   fold change (FC)            > 340
2  CCCCCOC(=O)N1CCN(C(=O)[C@H](CCC(=O)O)NC(=O)c2cc(N3CCC(CC(=O)NCC)CC3)nc(-c3ccccc3)n2)CC1   fold change (FC)            > 340

Now look at this one.
[ask] Report fold change (FC) for `CCCCCOC(=O)N1CCN(C(=O)[C@H](CCC(=O)O)NC(=O)c2nc(-c3ccccc3)cc(N3CCC(COCCOC)CC3)n2)CC1`
[reply] > 340
